Answer each item with its documented koff.
# system_name: T1, Recombinant human Dkk-1 (R&D Systems cat no. 1096-DK/CF), 10xHis tag at the C terminal (human, UniProt O94907 32-266)
# T1 construct: the actual N-terminus of the purified protein is marked in bold italic after residue 30, but the mark is an image lost in the text; also called rhuDkk-1; hDkk-1
# T1 sequence: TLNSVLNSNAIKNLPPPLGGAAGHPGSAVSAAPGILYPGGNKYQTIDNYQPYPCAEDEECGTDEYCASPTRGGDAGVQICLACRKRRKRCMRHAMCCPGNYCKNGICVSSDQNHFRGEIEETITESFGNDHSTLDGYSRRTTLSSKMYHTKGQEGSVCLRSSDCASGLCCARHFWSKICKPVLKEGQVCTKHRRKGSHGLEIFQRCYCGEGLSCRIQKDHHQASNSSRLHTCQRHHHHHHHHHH
# method_notes: SPR 37C (BIAcore/ProteOn), hDkk-1 series over captured IgG (taken so as kon is printed)
Numbers only, in s⁻¹.

Sample answers from the record:
2E11.33L (antibody, V domains shown) VH: EVQLVESGGGLVQPGGSLRLSCAASGFTFSSYAISWVRQAPGKGLEWVASVSGTGLGFQTYYPDSVKGRFTISRDNAKNSLYLQMNSLRAEDTAVYYCATSLRNYAFDYWGQGTTVTVSS VL: EIVLTQSPATLSLSPGERATLSCRASESVDDFGISFINWYQQKPGQAPRLLIYAGSKQGSGIPARFSGSGSGTDFTLTISSLEPEDFAVYYCQQLKEVPPTFGGGTKVEIK: 8.55e-05
4E8.33L (antibody, V domains shown) VH: EVQLVESGGGLVQPGGSLRLSCAASGFTFSSYAISWVRQAPGKGLEWVASVSGWLDTYYPDSVKGRFTISRDNAKNSLYLQMNSLRAEDTAVYYCATSLENYAFDYWGQGTTVTVSS VL: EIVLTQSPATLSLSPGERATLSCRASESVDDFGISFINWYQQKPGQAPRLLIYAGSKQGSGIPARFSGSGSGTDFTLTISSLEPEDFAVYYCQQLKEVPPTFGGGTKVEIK: 8.55e-05

Kindly review the next binder as well.
Any idea what its koff is? The binder is 36H.33L (antibody, V domains shown) VH: EVQLVESGGGLVQPGGSLRLSCAASGFTFSSYAISWVRQAPGKGLEWVASVSGWFDTYYPDSVKGRFTISRDNAKNSLYLQMNSLRAEDTAVYYCATSLRNYAFDYWGQGTTVTVSS VL: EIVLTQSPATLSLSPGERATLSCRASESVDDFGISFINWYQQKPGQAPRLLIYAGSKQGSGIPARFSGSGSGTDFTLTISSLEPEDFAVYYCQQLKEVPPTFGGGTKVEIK
8.55e-05
